Test system: MCF10A
Test: percent viability (nuclei count relative to siNT); higher = more viable cells
Settings: 20 nM; 72 h
Readout: percent viability (%)
The reply should contain only the number, in %.

Sequence	percent viability [%]
UCCUCAUCACACUGCACCUUAG [hsa-miR-6072]	32.4
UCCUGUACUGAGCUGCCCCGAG [hsa-miR-486-5p]	41.3
AAACUAAUAUACCCAUAUUCUG [hsa-miR-5583-5p]	115

Incoming: What value of percent viability has been recorded for this entry: UGAGGGGCAGAGAGCGAGACUUU [hsa-miR-423-5p]
Outgoing: 41.6

Incoming: Value lookup for percent viability; key = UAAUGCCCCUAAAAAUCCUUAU [hsa-miR-365a-3p]
Outgoing: 89.5

Incoming: Form field: reported percent viability of UUUUGUGUCUCCCAUUCCCCAG [hsa-miR-5010-3p]
Outgoing: 57.3

Incoming: Look up percent viability: ACCUGGCAGCAGGGAGCGUCGU [hsa-miR-8073]
Outgoing: 33.8

Incoming: # get_value(readout='percent viability', item= CCAGGCUCUGCAGUGGGAACU [hsa-miR-3155a] )
Outgoing: 32.5

Incoming: Requested field: percent viability. Item: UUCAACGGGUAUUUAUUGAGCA [hsa-miR-95]
Outgoing: 69.8
